- System: SF-268 CNS
- test protocol: NCI-60 one-dose screen, 48 h (100 = growth as untreated, 0 = no growth, -100 = all killed)
- experimental conditions: 10 µM
- Method: Cells are grown in 96 well plates and exposed to the test compound for 48 hours. Compounds are tested at a single concentration, which is 10^-5 M for most compounds. The reported endpoint is percent growth (GI% or GIPRCNT), where numbers from 0 - 100% represent growth inhibition, and numbers from -100% - 0 represent cell death. For example, a value of 40 represents 60% growth inhibition. A value of 0 means no net growth occurred over the course of the experiment. […]
Compounds without any hit were thinned out: in the full panel of roughly 83,000, 20% have a hit.
parameter measured: growth (%)
Express your answer in %, writing the number without its unit.

Field: example entries. Status: answers known.
>  <compound>
O=C(Cc1ccc2c(c1)CN(C1CCC(=O)NC1=O)C2=O)NCCc1ccccc1 (centres undefined)

>  <growth / %>
31.3

$$$$
>  <compound>
CC[C@]12C=CCN3CC[C@@]4(c5cc(C#CCNc6ccc(C)c(Nc7nccc(-c8cccnc8)n7)c6)c(OC)cc5N(C)[C@H]4[C@@](O)(C(=O)OC)[C@@H]1OC(C)=O)C32 (some centres undefined)

>  <growth / %>
57.9

$$$$
>  <compound>
CCOC(=O)C1=C(N)N(c2ccc(Cl)cc2)C2=C(C(=O)CC(C)(C)C2)C1c1ccc(N2CCOCC2)cc1 (centres undefined)

>  <growth / %>
89.7

$$$$
>  <compound>
Nc1cc(-c2cccc(C(=O)NCc3ccc4c(c3)OCO4)c2)ccn1

>  <growth / %>
91.5

$$$$
>  <compound>
O=C(c1ccc(Cl)cc1)C1[C@H](c2ccccc2Br)[C@@H](c2ccccc2)NC12C(=O)Nc1ccc(Br)cc12 (some centres undefined)

>  <growth / %>
32.7

$$$$

Measured growth (SF-268 CNS), entry Cc1ccc(C(=O)NNC(=O)CSc2nc3ccccc3c(=O)[nH]2)cc1 : 101

Note to self: growth of O=C1Nc2ccc(F)cc2/C1=C/c1cccc(OCc2ccccn2)c1 with SF-268 CNS was 23.4

The reported SF-268 CNS growth of O=C(CS(=O)(=O)c1oc(-c2ccc(Cl)cc2)nc1S(=O)(=O)c1ccccc1)N1CCCC1 is 74.5

The measured growth that Cc1ccc2nc(COc3ccc(C(=O)NNC(=S)NCCc4ccccc4)cc3)[nH]c2c1 showed for SF-268 CNS is 33.6

* * *

This section presents compounds with their documented growth values.
- Test system: SNB-19 CNS
- test protocol: NCI-60 one-dose screen, 48 h (100 = growth as untreated, 0 = no growth, -100 = all killed)
- experimental conditions: 10 µM
The panel holds about 83,000 compounds, 20% with a hit somewhere; the sample as a whole holds those more often.
Please reply with the bare figure in % and do not write the unit itself.

>  <compound>
NC1=NC(c2ccccc2Cl)N=C(Nc2nn[nH]n2)N1 (stereo unspecified)

>  <unit info>
%

>  <endpoint result>
99.6

$$$$
>  <compound>
CC(=C(c1ccc(OCCN2CCCCCC2)cc1)c1ccc(OCCN2CCCCCC2)cc1)c1ccc(Cl)cc1

>  <unit info>
%

>  <endpoint result>
-99.2

$$$$
>  <compound>
COc1ccc(/C=C/C(=O)c2ccc(N3CCN(C)CC3)cc2)c(C(F)(F)F)c1

>  <unit info>
%

>  <endpoint result>
54.5

$$$$
>  <compound>
CN(CCF)c1ccc(/C=C/C(=O)c2ccc(N)cc2O)cc1

>  <unit info>
%

>  <endpoint result>
84.1

$$$$
>  <compound>
O=c1nc(-c2ccccc2)cc(-c2cc3ccccc3nc2Cl)[nH]1

>  <unit info>
%

>  <endpoint result>
13

$$$$

Now turn to the next compound.
Looking up Clc1cccc(N/N=C/c2c[nH]c3ccccc23)n1 , I found its growth recorded as 43.2

* * *

- Tested on: OVCAR-8 ovarian
- test protocol: NCI-60 one-dose screen, 48 h (100 = growth as untreated, 0 = no growth, -100 = all killed)
- experimental conditions: 10 µM
About 83,000 compounds went through this panel and 20% of them were active in at least one assay; those are over-represented in the sample as a whole.
growth by entry:
Give just the number in %; leave the unit off.

// known answers, use as guide
>  <molecule>
COC1CC(Cn2cc(COc3ccc4ccc(=O)oc4c3)nn2)C(OCc2ccccc2)C(OCc2ccccc2)C1OCc1ccccc1 (stereo not drawn)

>  <subject of test>
OVCAR-8 ovarian

>  <unit info>
%

>  <endpoint result>
103

$$$$
>  <molecule>
CN1CCN(c2ccc(Nc3nc(N4CCN(S(=O)(=O)c5ccc(Cl)cc5)CC4)c4sccc4n3)cc2)CC1

>  <subject of test>
OVCAR-8 ovarian

>  <unit info>
%

>  <endpoint result>
-82.9

$$$$
>  <molecule>
O=C(CSc1nnc(-c2c[nH]c3ccccc23)n1-c1ccccc1)c1ccccc1

>  <subject of test>
OVCAR-8 ovarian

>  <unit info>
%

>  <endpoint result>
14.7

$$$$
>  <molecule>
O=C(Nc1nc2ccc([N+](=O)[O-])cc2s1)Nc1ccccc1I

>  <subject of test>
OVCAR-8 ovarian

>  <unit info>
%

>  <endpoint result>
11

$$$$
>  <molecule>
CC(=O)Nc1ccc(-c2cn(-c3cccc(C(=O)Nc4ccc(F)c(C(F)(F)F)c4)c3)nn2)cn1

>  <subject of test>
OVCAR-8 ovarian

>  <unit info>
%

>  <endpoint result>
2.67

$$$$
>  <molecule>
O=C(NO)c1ccc(CN2CCN(c3nc(-c4ccccc4)c4ccccc4n3)CC2)cc1

>  <subject of test>
OVCAR-8 ovarian

>  <unit info>
%

>  <endpoint result>
8.54

$$$$

Kindly note the recorded growth for COc1ccc(NC(=O)Cn2c(/C=C/c3ccc(N(C)C)cc3)nc3ccccc3c2=O)cc1 , which is 21

The molecule listed as CC[C@@]1(O)C(=O)OCc2c1cc1n(c2=O)Cc2c-1nc1cc(F)c(C)c3c1c2[C@@H](N)CC3 shows growth equal to -38.3

Value of growth reported for the molecule COc1ccc(/C=N/N=C(\C)c2ccc3c(c2)Nc2ccccc2S3)cc1O is 62.8

GET /value?item= O/N=C(\CSc1nnc(-c2c[nH]c3ccccc23)n1-c1ccccc1)c1ccc(Br)cc1 &field=growth returns -41.7

Reported growth of COc1ccc2ncc(C#Cc3cncc(C(=O)Nc4ccc(CN5CCN(C)CC5)c(C(F)(F)F)c4)c3)n2n1 : -49.2

Sample Cc1ccc(-c2nc3ccc(C(=O)N=Nc4c(O)[nH]c5ccc([N+](=O)[O-])cc45)cc3[nH]2)cc1 ; growth observed: 75.3

# molecule COc1ccccc1[C@H]1C(C(=O)c2ccc(Cl)cc2)C2(N[C@@H]1c1ccccc1)C(=O)Nc1ccccc12 (stereo partly drawn) ; its growth = 4.63

The recorded growth for entry COc1ccccc1[C@H]1C(C(=O)c2ccc(O)cc2)C2(N[C@@H]1c1ccccc1)C(=O)Nc1ccc(Br)cc12 (stereo partly drawn) equals 37.5

* * *

A collection of compounds and their measured growth
- System: SNB-75 CNS
- test protocol: NCI-60 one-dose screen, 48 h (100 = growth as untreated, 0 = no growth, -100 = all killed)
- experimental conditions: 10 µM
About 83,000 compounds went through this panel and 20% of them were active in at least one assay; those are over-represented in the sample as a whole. The source made the active and inactive calls. How the source made its calls: active means growth percent below 10; inactive means the rest.

Recorded results for 8 compounds are shown here.
>  <compound>
O=c1nc(-c2ccccc2)cc(-c2cc3ccccc3nc2Cl)[nH]1

>  <parameter measured>
growth

>  <endpoint result>
26.5% (inactive)

$$$$
>  <compound>
CC(=O)Oc1ccccc1C(=O)Oc1ccc(C(=O)/C=C/c2ccncc2)cc1

>  <parameter measured>
growth

>  <endpoint result>
102% (inactive)

$$$$
>  <compound>
CN1C(=O)N(C)C2SC(N/N=C/c3ccccc3)=NC21 (stereo not given)

>  <parameter measured>
growth

>  <endpoint result>
60.7% (inactive)

$$$$
>  <compound>
COc1cc(C2CC(c3ccc(C)cc3)=Nc3c(N)nc(N)nc3N2)ccc1Oc1nc(Nc2ccc(F)cc2)nc(N(C)C)n1 (stereo not given)

>  <parameter measured>
growth

>  <endpoint result>
104% (inactive)

$$$$
>  <compound>
N#Cc1c(NC(=O)c2ccc(C(F)(F)F)cc2)sc2c1CCC(O)=C2

>  <parameter measured>
growth

>  <endpoint result>
-3.93% (active)

$$$$
>  <compound>
NS(=O)(=O)c1ccc(NC(=O)CSc2ccc(-c3ccccc3)nn2)c(Br)c1

>  <parameter measured>
growth

>  <endpoint result>
14.2% (inactive)

$$$$
>  <compound>
O=C1CCC(N2Cc3cc(NC(=O)COc4ccccc4)ccc3C2=O)C(=O)N1 (stereo not given)

>  <parameter measured>
growth

>  <endpoint result>
46.4% (inactive)

$$$$
>  <compound>
O=c1oc2ccc(-c3ccc(F)cc3F)cc2c(=O)n1-c1ccc(Cl)c(C(F)(F)F)c1

>  <parameter measured>
growth

>  <endpoint result>
-4.03% (active)

$$$$

Given item CN1C(=O)N(C)C2SC(N/N=C/c3cccs3)=NC21 (stereo not given) , the value recorded as its growth is -1.77% (active)

// growth value for CC1=C(c2cc(-c3ccc(Cl)cc3)c(C#N)c(N)n2)C(c2ccccc2)NC(=S)N1 (stereo not given) : 36.5% (inactive)
